- measurement-target: PRMT5 (Homo sapiens, UniProt O14744)
- Construct: purchased Viva (custom protein)
- Sequence (O14744 whole entry): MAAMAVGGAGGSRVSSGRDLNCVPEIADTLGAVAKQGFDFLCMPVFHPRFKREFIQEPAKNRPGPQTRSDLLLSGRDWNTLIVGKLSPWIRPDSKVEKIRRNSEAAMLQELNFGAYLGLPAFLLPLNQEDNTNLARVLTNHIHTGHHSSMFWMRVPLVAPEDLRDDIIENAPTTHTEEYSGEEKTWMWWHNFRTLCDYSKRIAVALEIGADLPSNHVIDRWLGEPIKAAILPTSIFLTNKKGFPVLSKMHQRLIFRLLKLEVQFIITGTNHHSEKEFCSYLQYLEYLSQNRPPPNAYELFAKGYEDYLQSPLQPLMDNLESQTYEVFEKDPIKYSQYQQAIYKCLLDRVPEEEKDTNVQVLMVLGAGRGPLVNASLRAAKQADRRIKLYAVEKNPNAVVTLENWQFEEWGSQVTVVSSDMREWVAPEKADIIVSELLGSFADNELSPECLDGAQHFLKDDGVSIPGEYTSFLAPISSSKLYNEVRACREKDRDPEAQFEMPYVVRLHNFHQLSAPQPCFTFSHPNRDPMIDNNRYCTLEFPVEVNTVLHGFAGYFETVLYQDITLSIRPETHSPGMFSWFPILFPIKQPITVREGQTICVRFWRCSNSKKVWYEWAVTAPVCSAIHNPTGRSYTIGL
- Sequence (Q9BQA1 whole entry partner): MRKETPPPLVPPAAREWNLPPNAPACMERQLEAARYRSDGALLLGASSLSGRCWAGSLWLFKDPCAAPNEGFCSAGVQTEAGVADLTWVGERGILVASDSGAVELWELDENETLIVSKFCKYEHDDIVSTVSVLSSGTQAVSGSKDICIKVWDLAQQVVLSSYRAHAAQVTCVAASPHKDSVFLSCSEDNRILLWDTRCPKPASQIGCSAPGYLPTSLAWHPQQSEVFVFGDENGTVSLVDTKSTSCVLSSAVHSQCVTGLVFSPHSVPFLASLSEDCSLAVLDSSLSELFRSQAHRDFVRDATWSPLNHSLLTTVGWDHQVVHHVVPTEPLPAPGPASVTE
- assay-notes: PRMT5 biochemical IC50 assay with no cofactor
- protocol-conditions: PRMT5, no cofactor; read-out: No Cofactor/ rel IC50
metric: IC50

Worked cases, IC50 given:
compound=CCc1cc(NC(=O)C(=O)N2C[C@@H](C)CC[C@@H]2c2ccc(N3CCN(C)C[C@H]3C)nc2)cnc1N observed="< 50 nM"
compound="Cc1cc(NC(=O)C(=O)N2CCCCC2c2ccncc2)cnc1N (racemic)" observed="50 to 500 nM"
compound=CCc1cc(NC(=O)C(=O)N2C[C@@H](C)CC[C@@H]2c2cccc(OCC3CCN(C)CC3)c2)cnc1N observed="< 50 nM"

**Q:** Name the recorded IC50 of the item Cc1cncc(NC(=O)C(=O)N2C[C@H](C)CC[C@H]2c2ccnc(C)c2)c1 (racemic) in your answer.
**A:** > 500 nM

**Q:** Complete the entry with IC50 for C[C@@H]1CC[C@@H](c2ccc3cncn3c2)N(C(=O)C(=O)Nc2cnc(N)c(C3CC3)c2)C1 (single isomer, unassigned)
**A:** > 500 nM

**Q:** Given `NC(=O)c1cncc(NC(=O)C(=O)N2CCCC3(CCSCC3)C2)c1` , respond with its IC50.
**A:** > 500 nM

**Q:** Read off the recorded IC50 for CC(=O)N1CCC(c2cccc(C3CCCCN3C(=O)C(=O)Nc3cncc(C)c3)c2)CC1 (single isomer, unassigned) [Compound 73]
**A:** > 500 nM

====

# IC50 per record follows
- measurement-target: PRMT5 (Homo sapiens)
- Construct: purchased Viva (custom protein)
- assay-notes: PRMT5 biochemical IC50 assay with SAM as cofactor
- protocol-conditions: PRMT5, SAM as cofactor; read-out: SAM IC50

Field: example entries. Status: answers known.
compound="Cc1cc(NC(=O)C(=O)N2C[C@@H](C)CC[C@@H]2c2ccc3sc(C(F)(F)F)nc3c2)cnc1N (single isomer, unassigned)" observed="50 to 500 nM"
compound="CNc1cccc([C@@H]2CC[C@@H](C)CN2C(=O)C(=O)Nc2cnc(N)c(C)c2)c1 (single isomer, unassigned)" observed="50 to 500 nM"
compound="Cc1cc(NC(=O)C(=O)N2C[C@@H](C)CC[C@@H]2c2ccc(NS(C)(=O)=O)cc2)cnc1N (single isomer, unassigned)" observed="> 500 nM"

**Q:** Please give measured IC50 of the following entry: Cc1cc(NC(=O)C(=O)N2C[C@H](C)CC[C@H]2c2cnc3[nH]ncc3c2)cnc1N (single isomer, unassigned)
**A:** 50 to 500 nM

**Q:** Supply measured IC50 of C[C@H]1CC[C@H](C2CCC2)N(C(=O)C(=O)Nc2cncc(C(N)=O)c2)C1 (single isomer, unassigned) in your reply.
**A:** 50 to 500 nM

**Q:** For the compound Cc1cc(NC(=O)C(=O)N2C[C@H](C)CC[C@H]2c2ccc3sc(N)nc3c2)cnc1N (single isomer, unassigned) , give its reported IC50.
**A:** > 500 nM

====

- Tested on: HAP1 MTAP-deleted cell line
- assay-notes: Viability assay, MTAP-deleted cell line
- Assay type: cell-based
- protocol-conditions: Homo sapiens, HAP1, viability assay, MTAP-deleted cell line; read-out: HAP1 MTAP deleted viability
pIC50: −log10 of the molar value.
metric: pIC50

compound="Cc1cncc(NC(=O)C(=O)N2C[C@@H](C)CC[C@@H]2c2cccc(F)c2)c1 (single isomer, unassigned)" observed="< 5.00"
compound="C[C@@H]1CC[C@@H](c2ccc3c(c2)OCO3)N(C(=O)C(=O)Nc2cncc(C(N)=O)c2)C1 (racemic)" observed="5.00 to 6.00"
compound="Cc1cc([C@@H]2CC[C@@H](C)CN2C(=O)C(=O)Nc2cncc(C(N)=O)c2)ccc1F (racemic)" observed="5.00 to 6.00"
compound="[2H][C@]1(c2ccc(F)cc2)CC[C@H](C)CN1C(=O)C(=O)Nc1cncc(C(N)=O)c1 (racemic)" observed="5.00 to 6.00"

**Q:** Give reported pIC50 value for CC1(C)CCCC2CN(C(=O)C(=O)Nc3cncc(C(N)=O)c3)CCC21 (racemic)
**A:** < 5.00

**Q:** Please list pIC50 recorded for the compound CC(=O)N1CCC(c2cccc(C3CCCCN3C(=O)C(=O)Nc3cncc(C)c3)c2)CC1 (single isomer, unassigned)
**A:** < 5.00

**Q:** Recall and state the measured pIC50 for NC(=O)c1cncc(NC(=O)C(=O)N2CCC3(CC2)OCC2CC23)c1 (stereo not shown) .
**A:** < 5.00

====

- measurement-target: PRMT5 (Homo sapiens)
- Construct: purchased Viva (custom protein)
- assay-notes: PRMT5 biochemical IC50 assay with SAM as cofactor
- protocol-conditions: PRMT5, SAM as cofactor; read-out: SAM IC50
metric: IC50

Worked cases, IC50 given:
compound="CCc1cc(NC(=O)C(=O)N2C[C@@H](C)CC[C@@H]2c2ccc3[nH]cnc3c2)cnc1N (single isomer, unassigned)" observed="50 to 500 nM"
compound="CC(=O)N1CCC([C@@H]2CC[C@@H](C)CN2C(=O)C(=O)Nc2cnc(N)c(C)c2)CC1 (racemic)" observed="> 500 nM"
compound="COc1ncc(NC(=O)C(=O)N2C[C@@H](C)CC[C@@H]2c2ccc(C(N)=O)s2)cc1C(N)=O (single isomer, unassigned)" observed="50 to 500 nM"

// moving on: another record for IC50
**Q:** Quickly give me recorded IC50 for `CCc1cc(NC(=O)C(=O)N2C[C@@H](C)CC[C@@H]2c2ccc3cn(C)nc3c2)cnc1N`
**A:** 50 to 500 nM

====

- measurement-target: PRMT5 (Homo sapiens, UniProt O14744)
- Construct: purchased Viva (custom protein)
- assay-notes: PRMT5 biochemical IC50 assay with SAM as cofactor
- protocol-conditions: PRMT5, SAM as cofactor; read-out: SAM IC50
metric: IC50

Some solved entries appear below for comparison.
compound="Cc1cc(NC(=O)C(=O)N2CCCC[C@H]2C2CCCC2)cnc1N (single isomer, unassigned) [Compound 340]" observed="50 to 500 nM"
compound="Cc1cc(NC(=O)C(=O)N2CCCC[C@H]2c2cccc(N(C)C)c2)cnc1N (single isomer, unassigned) [Compound 384]" observed="50 to 500 nM"
compound="Cc1cc(NC(=O)C(=O)N2C[C@H](C)[C@H](OC(F)(F)F)C[C@H]2c2ccc(F)cc2)cnc1N (single isomer, unassigned) [Compound 1323]" observed="> 500 nM"
compound="C[C@@H]1CC[C@@H](c2cccc(C(F)(F)F)c2)N(C(=O)C(=O)Nc2cncc(C(N)=O)c2)C1 (racemic) [Compound 265]" observed="50 to 500 nM"
compound="C[C@@H]1CC[C@@H](c2cc[nH]n2)N(C(=O)C(=O)Nc2cncc(C(N)=O)c2)C1 (single isomer, unassigned) [Compound 1007]" observed="> 500 nM"

Now consider a different compound.
**Q:** Hello, please tell me recorded IC50 for this one: Cc1cc([C@@H]2CC[C@@H](C)CN2C(=O)C(=O)Nc2cncc(C(N)=O)c2)ccc1F (racemic) [Compound 131]
**A:** > 500 nM

====

- measurement-target: PRMT5 (Homo sapiens, UniProt O14744)
- Construct: purchased Viva (custom protein)
- assay-notes: PRMT5 biochemical IC50 assay with SAM as cofactor
- protocol-conditions: PRMT5, SAM as cofactor; read-out: SAM IC50
Reported IC50 values follow for various compounds

Take a look at these entries with their results.
compound="Cc1nc2cc([C@@H]3CC[C@H](C)CN3C(=O)C(=O)Nc3cnc(N)c(C)c3)ccc2o1 (single isomer, unassigned) [Compound 1170]" metric=IC50 observed="50 to 500 nM"
compound="CCc1cc(NC(=O)C(=O)N2C[C@@H](C)CC[C@@H]2c2cccc(N3CCN(C)CC3)c2)cnc1N [Compound 1367]" metric=IC50 observed="< 50 nM"
compound="Cc1cc(NC(=O)C(=O)N2C[C@H](C)CC[C@H]2c2ccccc2)cnc1C (single isomer, unassigned) [Compound 254]" metric=IC50 observed="< 50 nM"
compound="Cc1cc(NC(=O)C(=O)N2C[C@@H](C)CC[C@@H]2c2ccc(N(C)C3CCN(C)CC3)nc2)cnc1N [Compound 1225]" metric=IC50 observed="< 50 nM"
compound="C[C@H]1CC[C@H](c2cccnc2)N(C(=O)C(=O)Nc2cncc(C(N)=O)c2)C1 (single isomer, unassigned) [Compound 105]" metric=IC50 observed="> 500 nM"

Consider the record given below.
**Q:** Look up and state reported IC50 for Cc1cc(NC(=O)C(=O)N2C[C@@H](C)CC[C@@H]2c2ccc3c(c2)CCCN3)cnc1N (single isomer, unassigned) [Compound 503]
**A:** > 500 nM

====

- measurement-target: PRMT5 (Homo sapiens, UniProt O14744)
- Construct: purchased Viva (custom protein)
- assay-notes: PRMT5 biochemical IC50 assay with MTA as cofactor
- protocol-conditions: PRMT5, MTA as cofactor; read-out: MTA IC50
pIC50: −log10 of the molar value.
metric: pIC50

Solved entries (count: 3):
molecule="C[C@@H]1CC[C@@H](c2ccc(OC3CCOC3)cc2)N(C(=O)C(=O)Nc2cncc(C(N)=O)c2)C1 (mixture of isomers)" metric=pIC50 observed="6.30 to 7.30"
molecule="CNc1ccc([C@@H]2CC[C@@H](C)CN2C(=O)C(=O)Nc2cnc(N)c(C)c2)cc1 (racemic)" metric=pIC50 observed="6.30 to 7.30"
molecule="NC(=O)c1cncc(NC(=O)C(=O)N2CCCCC2c2ccccc2)c1 (centres unmarked)" metric=pIC50 observed="6.30 to 7.30"

**Q:** Please look at Cc1cc(NC(=O)C(=O)N2C[C@H](C)CC[C@H]2c2cc(Cl)cc(C(F)(F)F)c2)cnc1N (single isomer, unassigned) and tell me its recorded pIC50 on PRMT5 (Homo sapiens, UniProt O14744).
**A:** 6.30 to 7.30

**Q:** Name the value of pIC50 reported for C[C@@H]1CC[C@@H]2CCCC[C@@H]2N1C(=O)C(=O)Nc1cncc(C(N)=O)c1 (single isomer, unassigned) when tested on PRMT5 (Homo sapiens, UniProt O14744).
**A:** 6.30 to 7.30

**Q:** Name the recorded pIC50 of CC(=O)N[C@H]1CC[C@@H]([C@@H]2CC[C@@H](C)CN2C(=O)C(=O)Nc2cnc(N)c(C)c2)CC1 (single isomer, unassigned) , assay system PRMT5 (Homo sapiens, UniProt O14744).
**A:** 6.30 to 7.30

**Q:** Enter recorded pIC50 with PRMT5 (Homo sapiens, UniProt O14744) for CC(=O)N1CCC(c2cccc([C@H]3CC[C@H](C)CN3C(=O)C(=O)Nc3cnc(N)c(C)c3)c2)CC1 (single isomer, unassigned) here.
**A:** > 7.30
